B1: Twister Ribozyme (parent)
chain: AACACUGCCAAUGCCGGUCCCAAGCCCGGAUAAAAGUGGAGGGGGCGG

Variants of: B1
assayComment: self-cleavage, relative activity (ratio to wild type); higher = more cleavage; co-transcriptional
For each entry below, report its self-cleavage value.
Number only, please.

## Input Name the recorded self-cleavage of the variant listed here: C14G U37G
## Output 0.0706

## Input Name the recorded self-cleavage of the variant listed here: C25G G43U
## Output 0.133

## Input Name the recorded self-cleavage of the variant listed here: C8U G16U
## Output 0.459

## Input Name the recorded self-cleavage of the variant listed here: G13A C25G
## Output 0.0804

## Input Name the recorded self-cleavage of the variant listed here: C14A G29C
## Output 0.947

## Input Name the recorded self-cleavage of the variant listed here: G24A A33C
## Output 0.0756

## Input Name the recorded self-cleavage of the variant listed here: A10C A30G
## Output 0.969

## Input Name the recorded self-cleavage of the variant listed here: A22G U31C
## Output 0.304

## Input Name the recorded self-cleavage of the variant listed here: C9A G28C
## Output 0.636

## Input Name the recorded self-cleavage of the variant listed here: A32C G41A
## Output 0.556

## Input Name the recorded self-cleavage of the variant listed here: U31G G41C
## Output 0.278

## Input Name the recorded self-cleavage of the variant listed here: C5U C26A
## Output 0.148

## Input Name the recorded self-cleavage of the variant listed here: G43U G48U
## Output 0.198

## Input Name the recorded self-cleavage of the variant listed here: C25A G41C
## Output 0.106

## Input Name the recorded self-cleavage of the variant listed here: C21U A33G
## Output 0.146

## Input Name the recorded self-cleavage of the variant listed here: C9A C15U
## Output 0.567

## Input Name the recorded self-cleavage of the variant listed here: A11G A33U
## Output 0.955

## Input Name the recorded self-cleavage of the variant listed here: A23C G48C
## Output 0.211

## Input Name the recorded self-cleavage of the variant listed here: C19G G36U
## Output 0.099

## Input Name the recorded self-cleavage of the variant listed here: G16U G36A
## Output 0.426

## Input Name the recorded self-cleavage of the variant listed here: C20U A32U
## Output 0.887

## Input Name the recorded self-cleavage of the variant listed here: G16A G28C
## Output 0.489

## Input Name the recorded self-cleavage of the variant listed here: C19U A35C
## Output 1.05

## Input Name the recorded self-cleavage of the variant listed here: U6A G48U
## Output 0.782

## Input Name the recorded self-cleavage of the variant listed here: C5U C15G
## Output 0.0698

## Input Name the recorded self-cleavage of the variant listed here: C9G G45U
## Output 0.205

## Input Name the recorded self-cleavage of the variant listed here: C19G C26U
## Output 0.0735

## Input Name the recorded self-cleavage of the variant listed here: C21A G42A
## Output 0.0769

## Input Name the recorded self-cleavage of the variant listed here: A33U G48C
## Output 1.08

## Input Name the recorded self-cleavage of the variant listed here: A33G G41U
## Output 0.381

## Input Name the recorded self-cleavage of the variant listed here: A10G C26U
## Output 0.285

## Input Name the recorded self-cleavage of the variant listed here: G7C G47C
## Output 0.122

## Input Name the recorded self-cleavage of the variant listed here: G39A
## Output 0.568

## Input Name the recorded self-cleavage of the variant listed here: A22C C46A
## Output 1.02

## Input Name the recorded self-cleavage of the variant listed here: A4C A34U
## Output 0.0292

## Input Name the recorded self-cleavage of the variant listed here: G7A C21U
## Output 0.103

## Input Name the recorded self-cleavage of the variant listed here: A4U C8A
## Output 0.0382

## Input Name the recorded self-cleavage of the variant listed here: C26G G43U
## Output 0.138

## Input Name the recorded self-cleavage of the variant listed here: G7C A35U
## Output 0.0701

## Input Name the recorded self-cleavage of the variant listed here: A1C G45C
## Output 0.176

## Input Name the recorded self-cleavage of the variant listed here: A1C G47A
## Output 0.168

## Input Name the recorded self-cleavage of the variant listed here: G36C G38U
## Output 0.116

## Input Name the recorded self-cleavage of the variant listed here: C27U C46G
## Output 0.914

## Input Name the recorded self-cleavage of the variant listed here: G16U A30C
## Output 0.804

## Input Name the recorded self-cleavage of the variant listed here: C5A C21A
## Output 0.0272

## Input Name the recorded self-cleavage of the variant listed here: C9A C26U
## Output 0.06
